Form field: MFI, 5 nM (one value per entry).
- experimental target: T1, human PD-1 expressed on cells (human, UniProt Q15116 25-288)
- T1 construct: whole, on cells
- T1 sequence (Q15116 25-288): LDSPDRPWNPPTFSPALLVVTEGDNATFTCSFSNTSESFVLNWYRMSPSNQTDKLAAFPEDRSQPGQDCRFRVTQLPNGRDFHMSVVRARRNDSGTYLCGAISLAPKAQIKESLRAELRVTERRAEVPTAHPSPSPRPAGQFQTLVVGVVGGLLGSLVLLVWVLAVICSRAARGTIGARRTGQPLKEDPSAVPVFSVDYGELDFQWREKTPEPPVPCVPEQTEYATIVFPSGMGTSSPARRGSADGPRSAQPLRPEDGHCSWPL
- experiment notes: flow cytometry, hPD-1-Jurkat cells
Give a bare numeral; the unit MFI is implied.

Provide MFI, 5 nM value for the following binder: 31B1 (antibody, V domains shown, also called 780_38; 33B1 and 31B2 (apparent misprints)) VH: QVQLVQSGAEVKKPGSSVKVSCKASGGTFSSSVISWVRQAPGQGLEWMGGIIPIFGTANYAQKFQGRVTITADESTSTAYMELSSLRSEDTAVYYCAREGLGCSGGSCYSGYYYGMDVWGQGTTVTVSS VL: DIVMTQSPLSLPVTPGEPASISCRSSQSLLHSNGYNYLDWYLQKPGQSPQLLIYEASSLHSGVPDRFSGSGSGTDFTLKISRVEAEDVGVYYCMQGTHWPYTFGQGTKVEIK
67

Provide MFI, 5 nM value for the following binder: 38B2 (antibody, V domains shown, 24H9 derivative, IgG; also called 780_54; hPD1 Ab (38B2)) VH: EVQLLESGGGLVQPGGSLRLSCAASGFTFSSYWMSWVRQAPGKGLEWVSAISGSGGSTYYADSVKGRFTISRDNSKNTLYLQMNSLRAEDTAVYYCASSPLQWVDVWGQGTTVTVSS VL: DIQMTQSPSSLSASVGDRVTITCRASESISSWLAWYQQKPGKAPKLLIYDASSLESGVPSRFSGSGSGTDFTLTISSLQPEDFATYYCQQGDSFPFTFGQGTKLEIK
60.8

Provide MFI, 5 nM value for the following binder: 33C4 (antibody, V domains shown, also called 780_39) VH: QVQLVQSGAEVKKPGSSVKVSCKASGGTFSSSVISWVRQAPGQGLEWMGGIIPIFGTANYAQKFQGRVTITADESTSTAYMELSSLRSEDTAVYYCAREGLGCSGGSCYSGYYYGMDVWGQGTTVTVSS VL: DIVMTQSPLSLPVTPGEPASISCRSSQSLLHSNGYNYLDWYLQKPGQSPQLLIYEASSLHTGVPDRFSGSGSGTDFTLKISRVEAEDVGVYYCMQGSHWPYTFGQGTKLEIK
65.2

Provide MFI, 5 nM value for the following binder: 38A6 (antibody, V domains shown, also called 780_46) VH: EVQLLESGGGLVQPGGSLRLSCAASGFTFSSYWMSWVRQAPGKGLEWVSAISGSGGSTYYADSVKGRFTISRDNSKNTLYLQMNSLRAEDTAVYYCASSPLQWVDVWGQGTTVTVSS VL: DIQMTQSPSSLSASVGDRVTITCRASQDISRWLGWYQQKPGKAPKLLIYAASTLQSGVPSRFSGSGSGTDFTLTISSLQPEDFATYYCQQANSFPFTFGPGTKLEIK
59.9
